For each of the molecules below, state its logP at 2 h.
- assay-summary: Log p, octan-1-ol / phosphate buffer partition
- Format: physicochemical
- setup-conditions: octan-1-ol / 6.6 mM phosphate buffer pH 7.4, 25 °C
Numbers only.

Past entries and their recorded results:
molecule="COc1cc(C2Oc3c(O)cc(-c4oc5cc(O)cc(O)c5c(=O)c4O)cc3C2CO)ccc1OS(=O)(=O)O (centres unmarked) [2,3-Dehydro-silychristin-19-O-sulfate, 2,3-Dehydrosilychristin-19-O-sulfate]" measurement_kind="logP at 2 h" endpoint_result=-2.24
molecule="COc1cc(C2Oc3cc(-c4oc5cc(O)cc(O)c5c(=O)c4O)ccc3OC2CO)ccc1OS(=O)(=O)O (centres unmarked) [2,3-Dehydrosilybin-20-O-sulfate]" measurement_kind="logP at 2 h" endpoint_result=-2.16

Turning now to a further molecule:
### Prompt # query: logP at 2 h of entry COc1cc([C@H]2Oc3cc([C@H]4Oc5cc(O)cc(O)c5C(=O)[C@@H]4O)ccc3O[C@@H]2CO)ccc1O [Silybin A, silybin A, reference compound]
### Response 1.52

---

For each of the compounds below, state its ABTS^+ [CE].
- assay-summary: ABTS+ cation radical scavenging
- Format: biochemical
- setup-conditions: vitamin C equivalents, mean ± standard error
Marks after values point to notes of the source that are not given here.

compound="COc1cc([C@@H]2Oc3cc([C@H]4Oc5cc(O)cc(O)c5C(=O)[C@@H]4O)ccc3O[C@H]2CO)ccc1O [Silybin B, silybin B, reference compound]" measurement_kind="ABTS^+ [CE]" endpoint_result="0.97 ± 0.05 ^i CE"
compound="COc1cc([C@H]2Oc3cc([C@H]4Oc5cc(O)cc(O)c5C(=O)[C@@H]4O)ccc3O[C@@H]2CO)ccc1O [Silybin A, silybin A, reference compound]" measurement_kind="ABTS^+ [CE]" endpoint_result="1.01 ± 0.03 ^i CE"

Turning now to a further compound:
### Prompt # query: ABTS^+ [CE] of entry COc1cc(C2Oc3c(O)cc(-c4oc5cc(O)cc(O)c5c(=O)c4O)cc3C2CO)ccc1OS(=O)(=O)O (stereo not drawn) [2,3-Dehydro-silychristin-19-O-sulfate, 2,3-Dehydrosilychristin-19-O-sulfate]
### Response 0.62 ± 0.02 ^n CE

Origin of values: paper PMC6121260
